biological target: Human Nectin-4 (residues Gly32-Ser349) with C-terminal FLAG tag, biotinylated (human) (UniProt Q96NY8); assay: SPR (Biacore), biotinylated human Nectin-4 on streptavidin chip
Sequence (Q96NY8 32-349 limits assumed): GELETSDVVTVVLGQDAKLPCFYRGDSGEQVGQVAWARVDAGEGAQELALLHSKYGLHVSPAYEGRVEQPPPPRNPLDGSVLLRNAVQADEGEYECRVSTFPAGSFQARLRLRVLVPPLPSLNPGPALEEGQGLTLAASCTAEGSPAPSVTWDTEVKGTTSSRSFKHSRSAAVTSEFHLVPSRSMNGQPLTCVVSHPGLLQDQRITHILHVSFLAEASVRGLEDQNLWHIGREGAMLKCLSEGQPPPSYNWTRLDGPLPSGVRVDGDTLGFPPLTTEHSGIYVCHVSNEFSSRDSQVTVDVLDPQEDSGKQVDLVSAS
pKd: −log10 of the molar value. *1 amine or outer side, *2 acyl side, *3 side chain or, on linkers, in order; H or OH if unused. Bridges are numbered along the chain shown (N, C = ends). Primed or numbered codes have the meaning given here. Where no end group is shown, it is not given here. [ ]: non-standard residue; d: D form. TATA = O=C(CC[*:1])N1CN(C(=O)CC[*:2])CN(C(=O)CC[*:3])C1; 1Nal = N[C@@H](Cc1cccc2ccccc12)C(=O)O; Glutaryl = O=C(CCCC(=O)[*:2])[*:1]; Cya = N[C@@H](CS(=O)(=O)O)C(=O)O; Hyp = O=C(O)[C@@H]1C[C@@H](O)CN1; dCya = N[C@H](CS(=O)(=O)O)C(=O)O; hArg = N=C(N)NCCCC[C@H](N)C(=O)O; Cit = NC(=O)NCCC[C@H](N)C(=O)O; MMAE = monomethyl auristatin E; PABC′ = p-aminobenzylcarbamate; βAla = NCCC(=O)O; Sar = CNCC(=O)O
measurement_type: pKd

binder: {Ac-βAla}-[Sar][Sar][Sar][Sar][Sar][Sar][Sar][Sar][Sar][Sar]CP[1Nal][dCya]CM[hArg][Cya]WSTP[Hyp]WC (linker 11-15-25 via TATA (inferred)) [BCY8280]
measurement_type: pKd
measurement: 8.70

binder: {MMAE-PABC′-Cit-Val-Glutaryl-βAla}-[Sar][Sar][Sar][Sar][Sar][Sar][Sar][Sar][Sar][Sar]CP[1Nal][dCya]CM[hArg][Cya]WSTP[Hyp]WC (linker 11-15-25 via TATA (inferred)) [BCY8784]
measurement_type: pKd
measurement: 9.18

binder: Ac-CP[1Nal][dD]CM[hArg][Cya]WSTP[Hyp]WC (linker 1-5-15 via TATA (inferred)) [BCY8161]
measurement_type: pKd
measurement: 9.03

binder: {Ac-βAla}-[Sar][Sar][Sar][Sar][Sar][Sar][Sar][Sar][Sar][Sar]CP[1Nal][dD]CM[Cya][Cya]WSTP[Hyp]WC (linker 11-15-25 via TATA (inferred)) [BCY8281]
measurement_type: pKd
measurement: 8.21

binder: {Ac-βAla}-[Sar][Sar][Sar][Sar][Sar][Sar][Sar][Sar][Sar][Sar]CP[1Nal][dD]CM[hArg][Cya]WSTP[Hyp]WC (linker 11-15-25 via TATA (inferred)) [BCY8278]
measurement_type: pKd
measurement: 8.72
